# MEASUREMENT PROTOCOL: protein stability index of a GFP-peptide fusion (GPS, HEK-293T) (PSI 1-6); higher = more stable;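 further: 24-mer peptide tiles fused after GFP, lentivirally expressed, FACS-sorted into six equal bins by GFP/DsRed ratio, decoded by Illumina sequencing, PSI is the read-weighted mean bin number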
# CONDITION PARAMETERS: treatment: MLN4924 1 uM, 8 h; c terminus: a fixed tail appended
Hi all, reminder that labels come from protein stability index, split as low = under 3, middle = from 3 up to 5, high = 5 and over

State the class of the sequence shown: GQTTGHPYYLRSFLVVLKTVLENE [FAN1]
low

State the class of the sequence shown: EEHWVGLKKEPGHPWKWSNGKEFN [CD69]
middle

State the class of the sequence shown: IVADILLYVVIPTRRSTAEAFQIV [SPNS1]
middle

State the class of the sequence shown: VNKYYPPDFNPEKHGSLNRYHNSH [YJU2B]
middle

State the class of the sequence shown: PNQAMVVAAAGDACPPQHVPPKDS [TBC1D10A]
high

State the class of the sequence shown: LSKQAKFAYKDEYEKFKLYLTIIL [TMEM120A]
low

State the class of the sequence shown: EDESQSEEENDYRNLDASPTYKGL [CEP70]
high

State the class of the sequence shown: ILNLERDVEDLQRDKARLLREKVE [NFE2L1]
middle

State the class of the sequence shown: RDRLRSRLEALSTERDEIEDVKCQ [TRIM15]
high

State the class of the sequence shown: QNLNDRLASYLEKVRALEEANADL [KRT13]
middle

State the class of the sequence shown: KTLYVGNLSRDVTEALILQLFSQI [TIA1]
low

State the class of the sequence shown: QKLIVNLKPEKSYSFVLTNRGNSA [PTPRD]
low

State the class of the sequence shown: CSSARHPAWGHCFYRLYQDLETHR [SCNN1D]
low

State the class of the sequence shown: EQFPELMNMLWSRMLKDNKKNWRR [CLINT1]
low

State the class of the sequence shown: ITLFLLGAAKGKEVCYEDLGCFSD [PNLIPRP1]
middle

State the class of the sequence shown: YRDYGHSRRDESYSRGYRNRRSSR [RBMY1A1]
middle

State the class of the sequence shown: ELEGTEELCCVAELDNPMQQKWTK [C2CD2L]
middle

State the class of the sequence shown: GDQEGPRPARSTLDELLGRGMATK [FBF1]
middle

State the class of the sequence shown: SLGERMNTFVRYLLKRIKKCCGMR [KCNK9]
low

State the class of the sequence shown: LKDGYRLDEIPDDEDLDLIPPKSV [FAM219A]
high

State the class of the sequence shown: YKGPLLEEQALTKAAEGGLSSPEF [FAM98B]
middle

State the class of the sequence shown: DGAGRTWQDSDTVKLLVDLELSYG [TOR1AIP2]
low

State the class of the sequence shown: QEAKLLHWNGRHKPWDFPSVHNDL [GLT8D2]
low

State the class of the sequence shown: DSQVSEEVKTRHSEKSQREDEEEE [CHGB]
high

State the class of the sequence shown: AGPELDEMLREVDLNGDGTVDFDE [CABP4]
high

State the class of the sequence shown: ADFGLARIYSYQMALTPVVVTLWY [CDK4]
low

State the class of the sequence shown: ECEKSALTPGFSDNAIMLFSPDFT [FAN1]
middle

State the class of the sequence shown: YLNEYEAEKIEYNESMKAYHNSPA [SMARCE1]
middle

State the class of the sequence shown: TEQGFGEDLEDLGAVAPPVSGDLT [NFE2L1]
high

State the class of the sequence shown: NTFIALALQTLLTLIVVDASGLGL [SLC19A2]
middle

State the class of the sequence shown: ASWAKPHYEFNLSRMKFRGNGALS [LCOR]
low

State the class of the sequence shown: PAPKRGYSSEMKTEDELRVRHLEE [AUH]
middle

State the class of the sequence shown: YTEGISQRMRVPEKLKVAPPNADL [MFF]
middle

State the class of the sequence shown: ESKIREHLEKKGPQVRDWSHYFKI [KRT18]
low

State the class of the sequence shown: QVENWSAFAPDFKELDENVEYEER [RBBP5]
high

State the class of the sequence shown: NPFFAKTLQHWPHIIRIGDLKPTG [DENND6A]
low

State the class of the sequence shown: TWKVLFCSMSATFTLNFFRSGIQF [CLCN6]
middle

State the class of the sequence shown: SERDSEAAKQNHVTADDFVQTSVI [EHMT1]
high

State the class of the sequence shown: LSSVDMRMTSSPSSIPRRDDFFRH [RAD54B]
middle
